The entries below come with measured ELISA reading values attached.
assayed_target: T1, soluble KDR extracellular domain (ECD) (Calbiochem) (human, UniProt P35968 20-764)
T1 construct: extracellular domain; Bought protein; also called KDR-ECD; VEGF Receptor 2 D1-7, Cat. #676490
T1 sequence (P35968 20-764): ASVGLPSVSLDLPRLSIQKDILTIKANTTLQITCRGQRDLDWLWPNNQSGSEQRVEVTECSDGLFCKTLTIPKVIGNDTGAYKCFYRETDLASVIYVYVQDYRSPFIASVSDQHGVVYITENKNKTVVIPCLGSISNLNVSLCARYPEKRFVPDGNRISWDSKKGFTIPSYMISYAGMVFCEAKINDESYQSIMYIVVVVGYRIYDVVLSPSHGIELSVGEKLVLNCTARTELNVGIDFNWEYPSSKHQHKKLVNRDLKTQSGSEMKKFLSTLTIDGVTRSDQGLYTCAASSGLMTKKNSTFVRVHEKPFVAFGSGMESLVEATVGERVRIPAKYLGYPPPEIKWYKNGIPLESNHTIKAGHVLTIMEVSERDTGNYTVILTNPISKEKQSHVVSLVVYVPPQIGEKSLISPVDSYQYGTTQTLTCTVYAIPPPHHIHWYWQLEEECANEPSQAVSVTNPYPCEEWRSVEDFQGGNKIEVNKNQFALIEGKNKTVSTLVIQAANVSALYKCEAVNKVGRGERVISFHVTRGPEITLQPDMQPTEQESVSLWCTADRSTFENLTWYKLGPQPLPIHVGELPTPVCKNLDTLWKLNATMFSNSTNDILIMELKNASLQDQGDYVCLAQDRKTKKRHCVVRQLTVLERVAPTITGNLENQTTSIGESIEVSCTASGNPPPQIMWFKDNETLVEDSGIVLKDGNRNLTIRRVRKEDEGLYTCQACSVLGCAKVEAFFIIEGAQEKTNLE
procedure_text: High Antigen ELISA, KDR coat 500 ng/mL, supernatant 1:18,225
parameter_measured: ELISA reading

binder: 22B8 (antibody, V domains shown, Fully human mAb from XenoMouse hybridoma, tested as hybridoma supernatant) VH: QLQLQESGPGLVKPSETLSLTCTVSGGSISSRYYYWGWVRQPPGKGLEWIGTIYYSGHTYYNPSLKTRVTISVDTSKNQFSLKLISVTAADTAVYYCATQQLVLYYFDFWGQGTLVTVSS VL: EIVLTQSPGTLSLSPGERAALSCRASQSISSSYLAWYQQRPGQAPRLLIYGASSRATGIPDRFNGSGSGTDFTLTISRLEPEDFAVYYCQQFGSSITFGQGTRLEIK
recorded_measurement: 0.2
--
binder: 30F6 (antibody, V domains shown, Fully human mAb from XenoMouse hybridoma, tested as hybridoma supernatant) VH: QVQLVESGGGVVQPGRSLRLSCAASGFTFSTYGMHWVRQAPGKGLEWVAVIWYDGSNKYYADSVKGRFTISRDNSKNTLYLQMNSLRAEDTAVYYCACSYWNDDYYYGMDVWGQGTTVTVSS VL: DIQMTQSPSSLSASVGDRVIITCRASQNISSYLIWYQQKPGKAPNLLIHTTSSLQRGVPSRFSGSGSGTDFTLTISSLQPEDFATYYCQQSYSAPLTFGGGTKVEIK
recorded_measurement: 0.09
